Test: Solid-state (bulk) stability after 9 weeks storage, HPLC
Format: physicochemical
Details: solid state, relative retention time 0.91; 9 weeks at 50° C.; read-out: % Degradation (% peak area @ 50° C.-% peak area @ 4° C.)
Experimental: Approximately 1 mg of each of the free base, hydrochloride, hydrobromide and fumarate salts of Compound (I) were accurately weighed into small glass vials. These were stored for 9 weeks at each of 4° C./ambient humidity, 40° C./ambient humidity, 40° C./75% RH and 50° C./ambient humidity. […] The stability of the samples was quantified by investigating the appearance of new peaks in the chromatograms of stored samples and the increase in peaks present compared to control samples stored at 4° C.
test-readout: degraded at 1512 h (%)
Express your answer in %, writing the number without its unit.

Request: Give recorded degraded at 1512 h. CNS(=O)(=O)Cc1ccc2[nH]cc(C[C@H]3CCCN3C)c2c1 [Free base]
Response: 0.02
